# assay_notes: Cytotoxicity against human Huh5-2 cells assessed as growth inhibition after 3 days by MTS assay
# Type: cell-based, Huh-5-2
CC50 at 72 h values, listed per item
Express the result in µg/mL but write the number alone.

Would you please look over these solved cases?
{"compound_string": "CC(C)(C)c1nc2ccc(-c3ccsc3)nn2c1-c1cccc(-c2ccco2)c1", "unit_text": "µg/mL", "CC50 at 72 h": 41.3}
{"compound_string": "COc1ccccc1-c1nc2ccc(-c3ccsc3)nn2c1-c1cccc(-c2ccccc2)c1", "unit_text": "µg/mL", "CC50 at 72 h": 97.4}

Would you mind telling me what CC50 at 72 h value was observed for `Fc1ccc(-c2cccc(-c3c(-c4ccc(F)cc4)nc4ccccn34)c2)cc1` ? 54.5

###

# assay_notes: Cytotoxicity against MDBK cells assessed as growth inhibition after 3 days by MTS assay
# Type: cell-based, Bos taurus
# setup_conditions: cattle
experimental_readout: CC50 at 72 h

Would you please look over these solved cases?
{"compound_string": "CC(C)(C)c1nc2ccc(-c3ccsc3)nn2c1-c1cccc(-c2ccoc2)c1", "experimental_readout": "CC50 at 72 h", "obs_value": "4.5 µg/mL"}
{"compound_string": "Fc1ccc(-c2nc3ccc(-c4ccccc4)cn3c2-c2ccc(-c3ccccc3)cc2)cc1", "experimental_readout": "CC50 at 72 h", "obs_value": "30 µg/mL"}
{"compound_string": "COc1ccc(-c2nc3ccc(-c4ccsc4)cn3c2-c2cccc(-c3ccccc3)c2)cc1", "experimental_readout": "CC50 at 72 h", "obs_value": "> 100 µg/mL"}
{"compound_string": "COc1ccccc1-c1nc2ccc(-c3ccsc3)nn2c1-c1cccc(-c2ccc(O)cc2)c1", "experimental_readout": "CC50 at 72 h", "obs_value": "> 100 µg/mL"}
{"compound_string": "Fc1ccc(-c2nc3ccc(N4CCOCC4)nn3c2-c2ccccc2-c2ccccc2)cc1", "experimental_readout": "CC50 at 72 h", "obs_value": "31 µg/mL"}

Would you mind telling me what CC50 at 72 h value was observed for `CCOC(=O)c1nc2ccc(-c3ccsc3)cn2c1-c1cccc(-c2ccccc2)c1` ? 67.7 µg/mL

Would you mind telling me what CC50 at 72 h value was observed for `Fc1ccc(-c2nc3ccc(-c4ccccc4)cn3c2-c2cccc(-c3ccccc3)c2)cc1` ? > 50 µg/mL

Would you mind telling me what CC50 at 72 h value was observed for `COc1ccccc1-c1nc2ccccn2c1-c1cccc(-c2ccc(O)cc2)c1` ? > 100 µg/mL

Would you mind telling me what CC50 at 72 h value was observed for `Fc1ccc(-c2nc3ccc(-c4ccsc4)nn3c2-c2cccc(-c3ccccc3)c2)cc1` ? 13 µg/mL

Would you mind telling me what CC50 at 72 h value was observed for `Fc1ccc(-c2nc3ccc(-c4ccccc4)nn3c2-c2ccc(-c3ccccc3)cc2)cc1` ? > 50 µg/mL

###

# assay_notes: Selectivity index, ratio of CC50 for Huh5-2 cells to EC50 for HCV genotype 1b infected in Huh5-2 cells
# Design: species or system Huh-5-2
experimental_readout: Ratio CC50/EC50
In your answer, state the number alone without any accompanying words.

Would you please look over these solved cases?
{"compound_string": "COc1ccccc1-c1nc2ccccn2c1-c1cccc(-c2ccc(O)cc2)c1", "obs_value": 2.3}
{"compound_string": "Fc1ccc(-c2nc3ccc(-c4ccccc4)nn3c2-c2cccc(-c3ccccc3)c2)cc1", "obs_value": 1.4}

Would you mind telling me what Ratio CC50/EC50 value was observed for `COc1ccccc1-c1nc2ccc(-c3ccsc3)nn2c1-c1cccc(-c2ccccc2)c1` ? 6.6

Would you mind telling me what Ratio CC50/EC50 value was observed for `COc1ccccc1-c1nc2ccccn2c1-c1cccc(-c2cccc(O)c2)c1` ? 11.4

Would you mind telling me what Ratio CC50/EC50 value was observed for `COc1ccc(-c2cccc(-c3c(-c4ccc(F)cc4)nc4ccccn34)c2)cc1` ? 21.3

The reported measurements were obtained from ChEMBL document CHEMBL2390820.
